Data provenance is PubChem BioAssay (NCI).

- Test system: MDA-MB-231 breast
- experiment.description: NCI tumour cell line growth inhibition, 48 h
Provide the recorded TGI for the entries that follow.

Look at each compound and report its TGI.
1. O=[N+]([O-])c1ccc(N/N=C\c2ccc(O)cc2O)nc1
2. COc1ccc(/C=C2\NC(=S)N(CN3CCOCC3)C2=O)cc1
3. COc1cc(/C=C/C(=O)c2ccc(SC)cc2)cc(OC)c1OC
4. CC(C)[Si](CC1=CCCCC12C(=O)N(COCC[Si](C)(C)C)c1ccccc12)(C(C)C)C(C)C (centres undefined)

1: > 100 µM; 2: > 100 µM; 3: 17.2 µM; 4: > 100 µM

Look at each compound and report its TGI.
1. CCOC(=O)C(C(=O)OCC)C(=S)NC1OC(COC(C)=O)C(OC(C)=O)C(OC(C)=O)C1OC(C)=O (centres undefined)
2. FC(F)(F)c1ccc(N=NN2CCCC2)cc1
3. COc1ccc2oc(=O)c(-c3nc4ccccc4s3)cc2c1
4. Cc1nc(N(C)C)nc(-c2cccc(-c3ccn(CCN(C)C)n3)c2)c1C
5. COC(=O)CC(c1ccccc1)C(C#N)(OP1(=O)OC(c2ccccc2)C(C)N1C)c1ccccc1 (centres undefined)
6. COc1ccc(-c2c3c(n(C4OC(COC(C)=O)C(OC(C)=O)C(OC(C)=O)C4OC(C)=O)c(=S)c2C#N)CCCC3)cc1 (centres undefined)

> 100 µM
> 100 µM
53.2 µM
> 20 µM
> 100 µM
> 100 µM

---

Provide the recorded GI50 for the entries that follow.
- Test system: NCI-H226 lung
- experiment.description: NCI tumour cell line growth inhibition, 48 h

C/C(=N\O)c1ccc(Nc2cc(-c3ccccc3)nc3c(O)cccc23)cc1 :: 14700 nM

Look at each molecule and report its GI50.
1. C=CCOc1ccc2c(c1)CC[C@@H]1[C@@H]2CC[C@]2(C)C(=O)/C(=N/O)C[C@@H]12
2. Cc1cc(=O)[nH]c2c1C(=O)C(=O)C=C2

["5060 nM", "28600 nM"]

Look at each molecule and report its GI50.
1. Nc1ncnc2c1c(-c1ccc(Oc3ccccc3)cc1)nn2C[C@H]1SSC[C@H]1O
2. OC(c1cc2c(Cl)cc(Cl)cc2c2cc(C(F)(F)F)ccc12)C1CCCCN1 (centres undefined)

["1430 nM", "1730 nM"]

Look at each molecule and report its GI50.
1. COc1ccc(/C=N/C2=C(C#N)C(c3ccccc3)c3ccc4ccccc4c3O2)cc1 (centres undefined)
2. O=c1c(-c2nc3ccccc3[nH]2)cc2ccccc2n1Cc1cn(Cc2ccc(F)cc2)nn1
3. COc1ccc2c(C(=O)NCCCCCC(=O)O)cc3cc4c(cc3c2c1)OCO4
4. COc1cc(-c2nc3cc(Cl)c(Cl)cc3[nH]2)ccc1OCC(=O)N=Nc1c(O)[nH]c2ccccc12

1. 2080 nM
2. 572 nM
3. 83500 nM
4. 1040 nM

---

- Tested on: HCT-15 colon
- experiment.description: NCI tumour cell line growth inhibition, 48 h
readout: TGI (µM)
Give bare numbers, in µM.

// below: answered compounds
Nc1c2c(c(O)c3c1=C(CO)C=N3)=NCCS2=O (stereo not given) :: 10.6
O=C(Nc1ccc(-n2cc(-c3ccncc3)c(-c3ccc(Cl)c(O)c3)n2)cc1)c1ccc(Cl)c(C(F)(F)F)c1 :: 2.58
COc1ccc(-c2nn(C(=O)c3cc(OC)c(OC)c(OC)c3)c3cc(N)ccc23)cc1 :: 7.21

// next item, TGI requested
Form: Entry = `C[C@@H](Br)[C@@H]1CC[C@H]2c3[nH]c4ccccc4c3CCN2C1` | System = HCT-15 colon | TGI = ____
48.1
